Target: human muscarinic acetylcholine M3 receptor (Homo sapiens, UniProt P20309)
Construct: expressed in transfected cells; host or cells: CHO-K1 (Chinese Hamster Ovary) cell membranes
Sequence (P20309 whole entry): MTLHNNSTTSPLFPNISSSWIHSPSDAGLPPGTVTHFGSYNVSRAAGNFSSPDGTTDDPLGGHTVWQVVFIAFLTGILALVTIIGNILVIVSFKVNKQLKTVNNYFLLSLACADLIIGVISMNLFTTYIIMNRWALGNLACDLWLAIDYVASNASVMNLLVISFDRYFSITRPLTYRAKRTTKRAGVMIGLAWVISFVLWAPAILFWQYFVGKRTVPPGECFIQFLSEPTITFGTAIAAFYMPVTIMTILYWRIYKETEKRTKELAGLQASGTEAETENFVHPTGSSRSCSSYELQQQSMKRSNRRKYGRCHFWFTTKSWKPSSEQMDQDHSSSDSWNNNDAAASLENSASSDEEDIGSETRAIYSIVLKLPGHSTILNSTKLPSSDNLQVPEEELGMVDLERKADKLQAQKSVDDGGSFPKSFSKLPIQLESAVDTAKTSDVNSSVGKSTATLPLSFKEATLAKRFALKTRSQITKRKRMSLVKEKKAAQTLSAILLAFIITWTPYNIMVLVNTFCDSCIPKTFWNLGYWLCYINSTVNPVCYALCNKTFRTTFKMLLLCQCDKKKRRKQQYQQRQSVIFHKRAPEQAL
Assay: Muscarinic 3 receptor binding assay ([3H]NMS competition, SPA), single concentration 1 μM
Details: 1 μM compound; % inhibition specific [3H]-NMS binding
parameter: inhibition at 1 µM (%)

[[record]]
molecule = "O=C1COc2c(CCNCCN(C(=O)CCOCCc3cccc(CN4CCC5(CC4)CN(C(=O)CCc4nc6ccccc6[nH]4)CCO5)c3)C3CCCCC3)ccc(O)c2N1"
assay_value = 90

[[record]]
molecule = "Cc1cc2ncc(C(=O)N3CCOC4(CCN(Cc5cccc(CCOCCC(=O)N(CCNCCc6ccc(O)c7c6OCC(=O)N7)C6CCCCC6)c5)CC4)C3)c(C)n2n1"
assay_value = 80

[[record]]
molecule = "Cc1ccc(C(=O)N2CCOC3(CCN(Cc4cccc(CCOCCC(=O)N(CCNCCc5ccc(O)c6c5OCC(=O)N6)C5CCCCC5)c4)CC3)C2)s1"
assay_value = 101

[[record]]
molecule = "O=C1COc2c(CCNCCN(C(=O)CCOCCc3cccc(CN4CCC5(CC4)CN(C(=O)CCOc4ccccc4)CCO5)c3)C3CCCCC3)ccc(O)c2N1"
assay_value = 100

[[record]]
molecule = "O=C1COc2c(CCNCCN(C(=O)CCOCCc3cccc(CN4CCC5(CC4)CN(C(=O)C(O)C(F)(F)F)CCO5)c3)C3CCCCC3)ccc(O)c2N1 (stereo not drawn)"
assay_value = 100

[[record]]
molecule = "CCc1cc(C(=O)N2CCOC3(CCN(Cc4cccc(CCOCCC(=O)N(CCNCCc5ccc(O)c6c5OCC(=O)N6)C5CCCCC5)c4)CC3)C2)cs1"
assay_value = 100

[[record]]
molecule = "Cc1csc(C(=O)N2CCOC3(CCN(Cc4cccc(CCOCCC(=O)N(CCNCCc5ccc(O)c6c5OCC(=O)N6)C5CCCCC5)c4)CC3)C2)c1"
assay_value = 100

[[record]]
molecule = "O=C1COc2c(CCNCCN(C(=O)CCOCCc3cccc(CN4CCC5(CC4)CN(C(=O)[C@H](O)c4ccccc4)CCO5)c3)C3CCCCC3)ccc(O)c2N1"
assay_value = 100

[[record]]
molecule = "O=C1COc2c(CCNCCN(C(=O)CCOCCc3cccc(CN4CCC5(CC4)CN(C(=O)Cc4ccsc4)CCO5)c3)C3CCCCC3)ccc(O)c2N1"
assay_value = 99

[[record]]
molecule = "Cc1ccoc1C(=O)N1CCOC2(CCN(Cc3cccc(CCOCCC(=O)N(CCNCCc4ccc(O)c5c4OCC(=O)N5)C4CCCCC4)c3)CC2)C1"
assay_value = 100

[[record]]
molecule = "CC(C)c1cc(C(=O)N2CCOC3(CCN(Cc4cccc(CCOCCC(=O)N(CCNCCc5ccc(O)c6c5OCC(=O)N6)C5CCCCC5)c4)CC3)C2)no1"
assay_value = 99

[[record]]
molecule = "CCOc1ncccc1C(=O)N1CCOC2(CCN(Cc3cccc(CCOCCC(=O)N(CCNCCc4ccc(O)c5c4OCC(=O)N5)C4CCCCC4)c3)CC2)C1"
assay_value = 95

